test system: Plasmodium berghei; assay: Screen against P. berghei liver stage (PbLuc), transformed with Luciferase, at 10uM; type: functional, HepG2; conditions: tested at 10 uM
In all, about 69,000 compounds went through this assay and about 8,600 (12%) showed an effect of 50% or more. This excerpt belongs to a sample that is enriched for strong results.
INHIBITION overview
# number only, unit % dropped from output

{"compound": "CCc1cc(O)nc(C2CCCN2C(=O)c2cc(CC)on2)n1 (stereo unspecified)", "units text": "%", "numeric readout": 51.5}
{"compound": "COCCNC(=O)[C@H]1C[C@H]2OCC[C@H]2N(Cc2ccoc2)C1", "units text": "%", "numeric readout": 31.1}
{"compound": "CNc1nc(C2CCCCN2C(=O)C(C)(C)OC)nc2c1CN(C)CC2 (stereo unspecified)", "units text": "%", "numeric readout": 38.2}
{"compound": "CCc1cc(O)nc(C2CCCN2C(=O)COC)n1 (stereo unspecified)", "units text": "%", "numeric readout": 30.8}

Find the recorded INHIBITION belonging to O=C(NCC1CCCO1)c1ccc(S(=O)(=O)NCCc2cn[nH]c2)cc1 (stereo unspecified) and report it.
-17.5

Request: O=C1CC(NS(=O)(=O)c2cccc(F)c2)CN1 (stereo unspecified)
10.7

---

INHIBITION overview
tested on: Plasmodium berghei; test: Screen against P. berghei liver stage (PbLuc), transformed with Luciferase, at 10uM; format: functional, HepG2; details: tested at 10 uM
Out of some 69,000 compounds screened, about 8,600 (12%) showed an effect of 50% or more. The list comes from a sample in which strong results are over-represented; it also holds close analogues and randomly drawn compounds.
# number only, unit % dropped from output

Below are worked cases with known answers.
{"compound": "COCc1nc(C(=O)NS(=O)(=O)c2ccc(Cl)cc2F)cs1", "INHIBITION (%)": -64.25}
{"compound": "CC1(C)[C@H](Cc2cc(CO)on2)C[C@@H]1N(CC1CC1)CC1CC1", "INHIBITION (%)": 27.2}
{"compound": "Cc1cc(C(=O)NCc2ccnc(N3CCN(C)CC3)c2)sc1C", "INHIBITION (%)": 36.45}
{"compound": "CCN(CC)CCNCc1cc(O)c2cc(C)ccc2n1", "INHIBITION (%)": 16.3}
{"compound": "CCOCC1(CNCc2cc(O)c3cc(C)ccc3n2)CC1", "INHIBITION (%)": 35.4}

Find the recorded INHIBITION belonging to CN(C)CCN1C[C@@H]2CN(C(=O)c3ccsc3)C[C@@H]2C1=O and report it.
3.47

Request: CC(C)CCC(=O)N1CCN(C(C)c2nnc(CC(C)C)o2)CC1 (stereo not given)
13.8

---

test system: Plasmodium berghei; test: Screen against P. berghei liver stage (PbLuc), transformed with Luciferase, at 10uM; type: functional, HepG2; settings: tested at 10 uM
Hit rate of the full screen: of about 69,000 compounds, about 8,600 (12%) showed an effect of 50% or more. For the sample, strong results were picked, then their nearest neighbours and some compounds at random.
INHIBITION overview
# number only, unit % dropped from output

{"compound": "COC(=O)c1cccnc1N1CCC(Oc2cccc(F)c2)CC1", "study system": "Plasmodium berghei", "INHIBITION [%]": 58.4}
{"compound": "Cc1occc1C(=O)N1CCC(C(O)c2ccc(Cl)cc2)CC1 (configuration not stated)", "study system": "Plasmodium berghei", "INHIBITION [%]": -49.3}
{"compound": "CN1CCN([C@@H]2CN(C(=O)c3cc4ccc(F)cc4[nH]3)C[C@H]2O)CC1", "study system": "Plasmodium berghei", "INHIBITION [%]": 36}
{"compound": "O=C(NCc1cccnc1)C1=NOC2(CCCN(CCO)C2)C1 (configuration not stated)", "study system": "Plasmodium berghei", "INHIBITION [%]": 60.1}
{"compound": "O=C(NCC1CC1)C1=NOC2(CCN(Cc3ccsc3)C2)C1 (configuration not stated)", "study system": "Plasmodium berghei", "INHIBITION [%]": 38.5}
{"compound": "CCN(C)S(=O)(=O)N1CCC(C(O)c2ccc(F)cc2)CC1 (configuration not stated)", "study system": "Plasmodium berghei", "INHIBITION [%]": 51.1}

Find the recorded INHIBITION belonging to Cc1cc(CN2CCOC(CNc3cccnn3)C2)on1 (configuration not stated) and report it.
2.3

Request: CCOCC(=O)N1CCC(C(O)c2ccc(F)cc2)CC1 (configuration not stated)
-6.99

Request: O=C(O)c1ccc(N2CCC(Oc3cccc(F)c3)CC2)nc1
32.2

Request: COCC1CN(C(=O)Cc2ccsc2)Cc2c1cnn2C (configuration not stated)
46.2

Request: CCc1n[nH]c(=O)c(C(=O)N2CCOC3(CCCC3)C2)c1CC
48.2

Request: COCC1CN(C(=O)Cc2cccs2)Cc2c1cnn2C (configuration not stated)
66

Request: COCC1CN(C(=O)CC2Cc3ccccc3C2)Cc2c1cnn2C (configuration not stated)
59

---

tested on: Plasmodium berghei; test: Screen against P. berghei liver stage (PbLuc), transformed with Luciferase, at 10uM; type: functional, HepG2; settings: tested at 10 uM
In all, about 69,000 compounds went through this assay and about 8,600 (12%) showed an effect of 50% or more. The full list was thinned out, with strong results kept by preference.
property label: INHIBITION
Form entry: enter the amount, then its unit.

{"compound": "CC(NC(=O)NCCOc1ccc(F)c(F)c1)c1nncn1C (configuration not stated)", "result": "0.0932%"}
{"compound": "O=C(CN1CCC(c2ccnn2CCO)CC1)NCC1CCCCC1", "result": "-17.6%"}

Attention now turns to another entry.
Find the recorded INHIBITION belonging to O=C(CN1CCOC(c2ccc(Cl)c(Cl)c2)C1)NCc1ccco1 (configuration not stated) and report it.
21.5%

---

INHIBITION overview
system: Plasmodium berghei; test: Screen against P. berghei liver stage (PbLuc), transformed with Luciferase, at 10uM; type: functional, HepG2; conditions: tested at 10 uM
In all, about 69,000 compounds went through this assay and about 8,600 (12%) showed an effect of 50% or more. This is one part of a sample in which strong results are shown more often than they occur.
# number only, unit % dropped from output

Below are worked cases with known answers.
{"compound": "O=C(O)c1ccc2[nH]cc(CN3CCOCC3)c2c1", "INHIBITION [%]": -9.76}
{"compound": "Cc1noc(-c2ccnc(Oc3cccc(CN4CCCC4)c3F)c2)n1", "INHIBITION [%]": 83.3}
{"compound": "COc1ccc(Cl)cc1CS(=O)(=O)Cc1noc(C)n1", "INHIBITION [%]": 34.7}
{"compound": "CCOCC1CN(S(=O)(=O)N(C)C)Cc2cnn(CC3CC3)c21 (centres undefined)", "INHIBITION [%]": -57.7}
{"compound": "Cc1noc(-c2ccc(Oc3cccc(CN4CCCC4)c3F)nc2)n1", "INHIBITION [%]": 35}

Find the recorded INHIBITION belonging to CNc1cc2c(nn1)CCN(C(=O)c1cccc3c1OCCO3)C2 and report it.
51.1

Request: CCN1CCC(N2CCN(c3cc(-c4nc(C)no4)ccn3)CC2)CC1
33.8

Request: CC(C)COC(=O)N1CCCN(C(C)c2nnc(CC(C)C)o2)CC1 (centres undefined)
4.22

---

INHIBITION overview
tested on: Plasmodium berghei; assay: Screen against P. berghei liver stage (PbLuc), transformed with Luciferase, at 10uM; assay type: functional, HepG2; conditions: tested at 10 uM
About 8,600 (12%) of roughly 69,000 compounds showed an effect of 50% or more. The entries come from a sample that favours strong results as a whole.

Below are worked cases with known answers.
{"compound": "Cc1ncsc1CCN(C)C(=O)c1c(O)cccc1O", "INHIBITION": "25.1%"}
{"compound": "Cc1ccccc1C(=O)NCC(=O)NCc1ccccn1", "INHIBITION": "46.3%"}
{"compound": "CN(C)c1ccc(C(=O)N2CCN(c3cnccn3)CC2)cn1", "INHIBITION": "2.1%"}
{"compound": "O=C1CN(C(=O)CN(CC2CCC2)CC(F)(F)F)CCN1", "INHIBITION": "31%"}
{"compound": "Clc1ccc(Cc2nc(CNCCn3cccn3)cs2)cc1", "INHIBITION": "16.6%"}

Find the recorded INHIBITION belonging to Cc1cnc(CCN(C)C(=O)c2cccc(C)c2O)s1 and report it.
58.8%

Request: Cc1nc(N2CCC(C(O)c3nccn3C)CC2)c2c(C)noc2n1 (configuration not stated)
52.2%

Request: CN(C)C(=O)c1cnc2n1CCN(Cc1ccsc1)C2
3.11%

Request: Cc1nc(N2CCC(C(O)c3nccn3C)CC2)c2nc(C)oc2n1 (configuration not stated)
42.1%

Request: Cc1cnc(CCN(C)C(=O)c2cccc(N(C)C)c2)s1
33.7%

Request: Cc1nc(O)ccc1C(=O)NCc1ncoc1C
-17.3%

Request: Cc1ccc(NS(=O)(=O)C=c2[nH]c(=O)n3cccc3c2=O)cc1
-53.7%
